assay system: TBPS binding, rat brain cortical membranes in the presence of 5 μM GABA
assay overview: 35S-TBPS displacement (steroid inhibition of TBPS binding)
experimental parameters: read-out: 35S-TBPS Radioligand Displacement (IC50)
measurement type: IC50

// returns reported IC50 for input CC[C@H]1[C@H](O)CC[C@]2(C)[C@H]3CC[C@]4(C)[C@@H](C#N)CC[C@H]4[C@@H]3CC[C@@H]12 [Compound 50]
> 500 nM

What measured IC50 goes with C[C@]12C[C@H](OC3CC3)[C@@H](O)C[C@@H]1CC[C@@H]1[C@@H]2CC[C@]2(C)[C@@H](C#N)CC[C@@H]12 [Compound 42] ?
> 500 nM

Please look up its IC50: CCCO[C@H]1C[C@@]2(C)[C@@H](CC[C@@H]3[C@@H]2[C@@H](O)C[C@]2(C)[C@@H](C#N)CC[C@@H]32)C[C@@H]1O [Compound 26]
100 to 500 nM

IC50 lookup needed for CO[C@H]1C[C@]2(C)[C@@H](C#N)CC[C@H]2[C@@H]2CC[C@H]3C[C@H](O)[C@@H](C)C[C@]3(C)[C@H]21 [Compound 51] , thanks.
10 to 50 nM

// returns reported IC50 for input CCO[C@H]1C[C@@]2(C)[C@@H](CC[C@H]3[C@@H]4CC[C@H](C#N)[C@@]4(C)CC(=O)[C@@H]32)C[C@@H]1O [Compound 19]
50 to 100 nM

Name the recorded IC50 for CCO[C@H]1C[C@@]2(C)[C@@H](CC[C@@H]3[C@@H]2[C@@H](O)C[C@]2(C)[C@H](C#N)CC[C@@H]32)C[C@@H]1O [Compound 11] .
> 500 nM

Name the reported IC50 value associated with the molecule CO[C@@H]1C[C@@]2(C)[C@@H](CC[C@@H]3[C@@H]2CC[C@]2(C)[C@@H](C#N)CC[C@@H]32)C[C@@H]1O [Compound 44]
> 500 nM

Query (molecule): CO[C@H]1C[C@]2(C)[C@H](C#N)CC[C@H]2[C@@H]2CC[C@H]3C[C@H](O)[C@@H](OC)C[C@]3(C)[C@H]21 [Compound 13] ; field requested: IC50
> 500 nM

Look at this molecule and give its reported IC50. C[C@]12C[C@@H](O)C3[C@@H](CC[C@H]4C[C@H](O)CC[C@]34C)[C@@H]1CC[C@@H]2C#N (stereo partly shown) [Compound 30]
> 500 nM

Query: IC50; subject: C[C@]12CC[C@@H](O)C[C@@H]1CC[C@@H]1[C@@H]2[C@@H](O)C[C@]2(C)[C@@H](C#N)CC[C@@H]12 [Compound 27]
> 500 nM

Given the entry CO[C@H]1C[C@]2(C)[C@@H](C#N)CC[C@H]2[C@@H]2CC[C@H]3C[C@H](O)[C@@H](OC)C[C@]3(C)[C@H]21 [Compound 12] , report its measured IC50.
100 to 500 nM

I would be grateful if you could share the reported IC50 for C[C@]12CC[C@@H](O)C[C@H]1CC[C@@H]1[C@@H]2[C@@H](O)C[C@]2(C)[C@@H](C#N)CC[C@@H]12 [Compound 9] .
> 500 nM

Report IC50 for C[C@@H]1C[C@@]2(C)[C@@H](CC[C@@H]3[C@@H]2CC[C@]2(C)[C@@H](C#N)CC[C@@H]32)C[C@@H]1O [Compound 33] please.
10 to 50 nM
